assay_target: T1, EsCas13d, nuclease-dead (Eubacterium siraeum, UniProt B0MS50, R295A;H300A;R849A;H854A)
T1 sequence: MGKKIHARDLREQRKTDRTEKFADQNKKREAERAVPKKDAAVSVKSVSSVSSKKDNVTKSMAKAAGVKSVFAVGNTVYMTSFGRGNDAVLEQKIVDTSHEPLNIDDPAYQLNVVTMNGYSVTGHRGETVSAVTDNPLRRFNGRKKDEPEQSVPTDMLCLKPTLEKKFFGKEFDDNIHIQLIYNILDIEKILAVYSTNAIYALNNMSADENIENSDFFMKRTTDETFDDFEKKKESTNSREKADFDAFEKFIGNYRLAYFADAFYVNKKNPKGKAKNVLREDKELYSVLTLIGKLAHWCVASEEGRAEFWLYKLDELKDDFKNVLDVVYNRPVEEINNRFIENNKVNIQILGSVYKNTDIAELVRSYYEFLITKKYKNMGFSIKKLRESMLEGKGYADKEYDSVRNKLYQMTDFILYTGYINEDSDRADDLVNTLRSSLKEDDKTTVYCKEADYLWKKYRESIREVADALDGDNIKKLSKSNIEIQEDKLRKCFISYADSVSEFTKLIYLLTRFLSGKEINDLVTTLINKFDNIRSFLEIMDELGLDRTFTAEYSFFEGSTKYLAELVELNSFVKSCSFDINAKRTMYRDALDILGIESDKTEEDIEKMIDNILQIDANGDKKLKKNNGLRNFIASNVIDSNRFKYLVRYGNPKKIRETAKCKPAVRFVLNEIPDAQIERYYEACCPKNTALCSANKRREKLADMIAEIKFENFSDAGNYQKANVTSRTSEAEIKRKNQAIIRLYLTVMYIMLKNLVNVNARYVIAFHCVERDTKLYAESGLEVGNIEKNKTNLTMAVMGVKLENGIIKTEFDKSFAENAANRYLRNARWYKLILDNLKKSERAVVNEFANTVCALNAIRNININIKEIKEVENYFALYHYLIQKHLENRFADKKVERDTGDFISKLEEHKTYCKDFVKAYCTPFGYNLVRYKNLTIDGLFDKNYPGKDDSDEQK
experiment_description: crRNA (strand 1, pre-loaded); Mg2+; 40 mM Tris-HCl pH 7.5, 150 mM NaCl, 6 mM MgCl2, 1 mM DTT, 0.1% Tween-20, 0.2 mg/ml BSA; 25 C; 10 min per concentration, then washed
experimental_setup: tags: His6-TwinStrep-SUMO cleaved; N-terminal SNAP kept (SNAP-Surface 488); label: 3' end held by stalled T7 RNA polymerase
recorded_endpoint: pKd
// field semantics: pKd = negative decimal log of concentration (mol/L)

// known answers, use as guide
target 1 MT 5'PFS CAC 3'PFS CAA (mixed) RNA 1: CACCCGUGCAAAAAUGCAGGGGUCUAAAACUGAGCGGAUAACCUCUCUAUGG RNA 2: GGGAAUGGAUCCACAUCUACGAAUUCCACCCAUAGAGAGGUUAUCCGCUCACAAAGAUCGGAAGAGCACACGU: 7.92
target 2 MT 5'PFS GUA 3'PFS AAC (mixed) RNA 1: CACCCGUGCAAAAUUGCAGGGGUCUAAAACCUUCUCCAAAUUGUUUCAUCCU RNA 2: GGGAAUGGAUCCACAUCUACGAAUUCGUAAGGAUGAAACAAUUUGGAGAAGAACAGAUCGGAAGAGCACACGU: 8.21
target 1 MT 5'PFS GAC 3'PFS UCA (mixed) RNA 1: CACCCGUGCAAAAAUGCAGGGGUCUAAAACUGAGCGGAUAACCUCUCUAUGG RNA 2: GGGAAUGGAUCCACAUCUACGAAUUCGACCCAUAGAGAGGUUAUCCGCUCAUCAAGAUCGGAAGAGCACACGU: 7.78
target 1 C7U,U8A (mixed) RNA 1: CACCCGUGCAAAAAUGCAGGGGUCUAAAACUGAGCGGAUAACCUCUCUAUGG RNA 2: GGGAAUGGAUCCACAUCUACGAAUUCGUACCAUAGAGAGGUUAAUCGCUCACCGAGAUCGGAAGAGCACACGU: 7.89
target 1 insC 3' of 15,insG 3' of 6 (mixed) RNA 1: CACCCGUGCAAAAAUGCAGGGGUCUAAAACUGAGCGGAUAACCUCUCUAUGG RNA 2: GGGAAUGGAUCCACAUCUACGAAUUCGUACCAUAGAGCAGGUUAUCCGGCUCACCGAGAUCGGAAGAGCACACGU: 7.66

target 2 MT 5'PFS AGU 3'PFS CGC (mixed) RNA 1: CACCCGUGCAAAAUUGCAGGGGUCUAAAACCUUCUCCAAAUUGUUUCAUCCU RNA 2: GGGAAUGGAUCCACAUCUACGAAUUCAGUAGGAUGAAACAAUUUGGAGAAGCGCAGAUCGGAAGAGCACACGU yielded pKd of 7.84

// target 2 MT 5'PFS CUG 3'PFS CGC (mixed) RNA 1: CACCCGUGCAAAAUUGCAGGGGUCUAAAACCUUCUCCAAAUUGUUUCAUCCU RNA 2: GGGAAUGGAUCCACAUCUACGAAUUCCUGAGGAUGAAACAAUUUGGAGAAGCGCAGAUCGGAAGAGCACACGU : pKd value = 8.40

Data credit: paper PMC10786891
